Reported inhibition at 1 µM is given for each of the following compounds.
biological target: hDGAT1 (Homo sapiens, UniProt O75907); assay: In-vitro DGAT1 assay (14C oleoyl CoA, hDGAT1 microsomes from Sf9 cells); conditions: read-out: % Inhibition of hDGAT1
Sequence (O75907 whole entry): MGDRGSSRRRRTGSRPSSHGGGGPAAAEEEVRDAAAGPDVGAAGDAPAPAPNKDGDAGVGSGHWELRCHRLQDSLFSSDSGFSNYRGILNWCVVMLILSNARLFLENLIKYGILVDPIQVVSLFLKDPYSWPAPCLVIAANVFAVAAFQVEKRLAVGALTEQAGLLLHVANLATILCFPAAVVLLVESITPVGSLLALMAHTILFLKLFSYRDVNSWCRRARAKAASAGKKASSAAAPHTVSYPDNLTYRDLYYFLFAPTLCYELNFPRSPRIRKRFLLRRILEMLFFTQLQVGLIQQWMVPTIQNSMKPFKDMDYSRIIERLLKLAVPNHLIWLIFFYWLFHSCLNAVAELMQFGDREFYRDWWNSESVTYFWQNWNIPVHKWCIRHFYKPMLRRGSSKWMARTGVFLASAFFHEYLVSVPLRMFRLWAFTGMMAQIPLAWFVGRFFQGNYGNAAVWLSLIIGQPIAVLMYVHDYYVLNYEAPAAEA

Example compounds with recorded inhibition at 1 µM:
{"smiles-code": "CCCCCc1ccc(C(=O)Nc2ccc(-c3ccc4c(c3)CN([C@H](C(=O)O)C(C)C)C4=O)cc2)cc1", "target-entity": "hDGAT1 (Homo sapiens, UniProt O75907)", "inhibition at 1 µM": "10 to 50%"}
{"smiles-code": "CC(C)(C(=O)O)N1Cc2ccc(-c3ccc(NC(=O)c4ccc(OC(F)(F)F)cc4)cc3)cc2C1=O", "target-entity": "hDGAT1 (Homo sapiens, UniProt O75907)", "inhibition at 1 µM": "10 to 50%"}

Prompt line: For CC(C)[C@@H](C(=O)O)N1Cc2cc(-c3ccc(NC(=O)Nc4ccc(C(F)(F)F)cc4)cc3)ccc2C1=O , what is its reported inhibition at 1 µM?
Response line: > 50%

Prompt line: For CC(C)[C@@H](C(=O)O)N1Cc2ccc(-c3cnc(NC(=O)c4ccc(C(C)(C)C)cc4)cn3)cc2C1=O , what is its reported inhibition at 1 µM?
Response line: 10 to 50%
